System: ECHORC (Watergrass (Calif.))
Assay info: Preemergence weed control under flooded paddy conditions
Assay type: in vivo, Echinochloa oryzoides
Assay context: 0.0625 kg/ha, rated 3-4 weeks after treatment
# reported Herbicidal rating ECHORC; entries follow
A bare number is all that is needed in reply.

# annotated cases, reported Herbicidal rating ECHORC shown
CCOC(=O)CN1C(=O)C2(CC2)SC1=Nc1cc(-n2c(=O)cc(C(F)(F)F)n(C)c2=O)c(F)cc1Cl    9.0
CCOC(=O)CN1C(=O)C(CC(=O)OC(C)C)SC1=Nc1cc(-n2c(=O)cc(C(F)(F)F)n(C)c2=O)c(F)cc1Cl (stereo not drawn)    7.0
CCOC(=O)CN1C(=O)C(CC(N)=O)S/C1=N/c1cc(-n2c(=O)cc(C(F)(F)F)n(C)c2=O)c(F)cc1Cl (stereo not drawn)    0.0

### Prompt Record request: Herbicidal rating ECHORC value, item `C[C@@H](C(=O)O)N1C(=O)CS/C1=N/c1cc(-n2c(=O)cc(C(F)(F)F)n(C)c2=O)c(F)cc1Cl`
### Response 0.0

### Prompt Record request: Herbicidal rating ECHORC value, item `Cn1c(C(F)(F)F)cc(=O)n(-c2cc(N=C3SCC(=O)N3CC(=O)OC(C)(C)C)c(Cl)cc2F)c1=O`
### Response 6.0

### Prompt Record request: Herbicidal rating ECHORC value, item `CCOC(=O)CN1C(=O)CS(=O)(=O)C1=Nc1cc(-n2c(=O)cc(C(F)(F)F)n(C)c2=O)c(F)cc1Cl`
### Response 0.0

* * *

Tested on: ABUTH (Velvetleaf)
Assay info: Postemergence herbicidal evaluation
Assay type: in vivo, Abutilon theophrasti
Assay context: postemergence, rate 0.1250 kg/ha
Value type: ABUTH herbicidal rating
A bare number is all that is needed in reply.

# annotated cases, reported ABUTH herbicidal rating shown
C=CCN1C(=O)CSC1=Nc1cc(N2C(=O)C3=C(CCCC3)C2=O)c(F)cc1Cl    9.0
CCOC(=O)CN1C(=O)C(CC(=O)NOC)SC1=Nc1cc(-n2c(=O)cc(C(F)(F)F)n(C)c2=O)c(F)cc1Cl (centres unmarked)    9.0
C=CCN1C(=O)C(CC(=O)NS(C)(=O)=O)SC1=Nc1cc(-n2c(=O)cc(C(F)(F)F)n(C)c2=O)c(F)cc1Cl (centres unmarked)    9.0
CCOC(=O)CN1C(=O)C2(CC2)SC1=Nc1cc(-n2c(=O)cc(C(F)(F)F)n(C)c2=O)c(F)cc1Cl    9.0

Below: the item to evaluate.
### Prompt Find the measured ABUTH herbicidal rating: item CC(C)OC(=O)CC1SC(=Nc2cc(-n3c(=O)cc(C(F)(F)F)n(C)c3=O)c(F)cc2Cl)N(C)C1=O (centres unmarked) , target or system ABUTH (Velvetleaf).
### Response 9.0

* * *

System: SETVI (Foxtail, Green)
Assay info: Preemergence herbicidal evaluation
Assay type: in vivo, Setaria viridis
Assay context: 0.0625 kg/ha, rated 4-5 weeks after treatment
Value type: Preemergence herbicidal rating SETVI
A bare number is all that is needed in reply.

### Prompt Record request: Preemergence herbicidal rating SETVI value, item CCOC(=O)CN1C(=O)C(CC(=O)O)SC1=Nc1cc(N2C(=O)CC(C(F)(F)F)CC2=O)c(F)cc1Cl (centres unmarked)
### Response 9.0

### Prompt Record request: Preemergence herbicidal rating SETVI value, item `COCCCN1C(=O)CSC1=Nc1cc(-n2c(=O)cc(C(F)(F)F)n(C)c2=O)c(F)cc1Cl`
### Response 9.0

### Prompt Record request: Preemergence herbicidal rating SETVI value, item `CC(C)N1C(=O)CSC1=Nc1cc(-n2c(=O)cc(C(F)(F)F)n(C)c2=O)c(F)cc1Cl`
### Response 9.0

### Prompt Record request: Preemergence herbicidal rating SETVI value, item CCOC(=O)CN1C(=O)C(C(=O)OC(C)(C)C)SC1=Nc1cc(-n2c(=O)cc(C(F)(F)F)n(C)c2=O)c(F)cc1Cl (centres unmarked)
### Response 9.0

### Prompt Record request: Preemergence herbicidal rating SETVI value, item CCOC(=O)CN1C(=O)C(OC)SC1=Nc1cc(-n2c(=O)cc(C(F)(F)F)n(C)c2=O)c(F)cc1Cl (centres unmarked)
### Response 7.0

* * *

Tested on: CYPSE (Flatsedge)
Assay info: Postemergence weed control under flooded paddy conditions
Type: in vivo, Cyperus serotinus
Assay context: Rate 0.0313 kg/ha, postemergence weeds, rated 3 to 4 weeks after treatment
Value type: Herbicidal rating CYPSE
A bare number is all that is needed in reply.

# annotated cases, reported Herbicidal rating CYPSE shown
C[C@@H](C(=O)OC(C)(C)C)N1C(=O)CSC1=Nc1cc(-n2c(=O)cc(C(F)(F)F)n(C)c2=O)c(F)cc1Cl [Compound 75]    2.0
CCOC(=O)[C@H](Cc1ccccc1)N1C(=O)CSC1=Nc1cc(-n2c(=O)cc(C(F)(F)F)n(C)c2=O)c(F)cc1Cl [Compound 80]    3.0

Below: the item to evaluate.
### Prompt Record request: Herbicidal rating CYPSE value, item COC(=O)C(Cc1ccc(Cl)cc1)N1C(=O)CSC1=Nc1cc(-n2c(=O)cc(C(F)(F)F)n(C)c2=O)c(F)cc1Cl (racemic) [Compound 77]
### Response 0.0

* * *

System: CYPSE (Flatsedge)
Assay info: Preemergence weed control under flooded paddy conditions
Type: in vivo, Cyperus serotinus
Assay context: 0.0625 kg/ha, rated 3-4 weeks after treatment
Value type: Herbicidal rating CYPSE
A bare number is all that is needed in reply.

# annotated cases, reported Herbicidal rating CYPSE shown
CCC1SC(=Nc2cc(N3C(=O)C4=C(CCCC4)C3=O)c(F)cc2Cl)N(C)C1=O (stereo not drawn)    0.0
CCOC(=O)CN1C(=O)C(CCO)S/C1=N/c1cc(-n2c(=O)cc(C(F)(F)F)n(C)c2=O)c(F)cc1Cl (stereo not drawn)    3.0
CCOC(=O)CN1C(=O)C(CC(=O)OC(C)C)SC1=Nc1cc(-n2c(=O)cc(C(F)(F)F)n(C)c2=O)c(F)cc1Cl (stereo not drawn)    0.0
Cn1c(C(F)(F)F)cc(=O)n(-c2cc(N=C3NC(=O)CS3)c(Cl)cc2F)c1=O    0.0
CCOC(=O)CN1C(=O)C2(CC2)SC1=Nc1cc(-n2c(=O)cc(C(F)(F)F)n(C)c2=O)c(F)cc1Cl    0.0

Below: the item to evaluate.
### Prompt Record request: Herbicidal rating CYPSE value, item `CCOC(=O)CN1C(=O)CS(=O)(=O)C1=Nc1cc(-n2c(=O)cc(C(F)(F)F)n(C)c2=O)c(F)cc1Cl`
### Response 0.0

* * *

Tested on: CASOB (Sicklepod)
Assay info: Postemergence herbicidal evaluation
Assay type: in vivo, Cassia obtusifolia
Assay context: postemergence, rate 0.0630 kg/ha
Procedure: In the tests, seedling plants are grown in jiffy flats for about two weeks. The test compounds are dispersed in 50/50 acetone/water mixtures containing 0.5% TWEEN®20, a polyoxyethylene sorbitan monolaurate surfactant of Atlas Chemical Industries, in sufficient quantities to provide the equivalent of about 0.0156 kg to 0.500 kg per hectare of active compound when applied to the plants through a spray nozzle operating at 40 psi for a predetermined time. […]
# reported CASOB herbicidal rating; entries follow
A bare number is all that is needed in reply.

# annotated cases, reported CASOB herbicidal rating shown
CC(C)C[C@@H](C(=O)O)N1C(=O)CSC1=Nc1cc(-n2c(=O)cc(C(F)(F)F)n(C)c2=O)c(F)cc1Cl    4.0
C=CCOC(=O)CC1SC(=Nc2cc(-n3c(=O)cc(C(F)(F)F)n(C)c3=O)c(F)cc2Cl)N(CC=C)C1=O (stereo not shown)    3.0

### Prompt Record request: CASOB herbicidal rating value, item `CCOC(=O)CN1C(=O)C(=Cc2ccccc2)SC1=Nc1cc(-n2c(=O)cc(C(F)(F)F)n(C)c2=O)c(F)cc1Cl`
### Response 1.0

### Prompt Record request: CASOB herbicidal rating value, item CN1C(=O)C(CC(=O)Nc2ccccc2)SC1=Nc1cc(-n2c(=O)cc(C(F)(F)F)n(C)c2=O)c(F)cc1Cl (stereo not shown)
### Response 4.0

* * *

Test system: GLXMAW (Soybean, Williams)
Assay info: Preemergence herbicidal evaluation
Assay type: in vivo, Glycine max, (L.) Merr. cv Williams
Assay context: rate 0.0625 kg/ha; rated 4-5 weeks after treatment
Value type: Preemergence herbicidal rating GLXMAW
A bare number is all that is needed in reply.

# annotated cases, reported Preemergence herbicidal rating GLXMAW shown
CC(C)S(=O)(=O)NC(=O)CC1SC(=Nc2cc(-n3c(=O)cc(C(F)(F)F)n(C)c3=O)c(F)cc2Cl)N(C)C1=O (stereo not shown)    0.0
COC(=O)[C@@H](Cc1ccccc1)N1C(=O)CSC1=Nc1cc(-n2c(=O)cc(C(F)(F)F)n(C)c2=O)c(F)cc1Cl    0.0
Cn1c(C(F)(F)F)cc(=O)n(-c2cc(N=C3SCC(=O)N3CC(=O)OC(C)(C)C)c(Cl)cc2F)c1=O    0.0
C=CCN1C(=O)C(CC(=O)OC)SC1=Nc1cc(-n2c(=O)cc(C(F)(F)F)n(C)c2=O)c(F)cc1Cl (stereo not shown)    2.0
Cn1c(C(F)(F)F)cc(=O)n(-c2cc(N=C3SCC(=O)N3Cc3ccccc3)c(Cl)cc2F)c1=O    0.0

### Prompt Record request: Preemergence herbicidal rating GLXMAW value, item `CCOC(=O)CN1CC(=O)N(CC(=O)OCC)C1=Nc1cc(-n2c(=O)cc(C(F)(F)F)n(C)c2=O)c(F)cc1Cl`
### Response 0.0

### Prompt Record request: Preemergence herbicidal rating GLXMAW value, item `CC(C)COC(=O)CN1C(=O)CSC1=Nc1cc(-n2c(=O)cc(C(F)(F)F)n(C)c2=O)c(F)cc1Cl`
### Response 0.0
